Hey, just so you know, these numbers are from patent US7015306B2.

tgt: neurotensin receptors (Homo sapiens, UniProt P30989)
Sequence (P30989 whole entry): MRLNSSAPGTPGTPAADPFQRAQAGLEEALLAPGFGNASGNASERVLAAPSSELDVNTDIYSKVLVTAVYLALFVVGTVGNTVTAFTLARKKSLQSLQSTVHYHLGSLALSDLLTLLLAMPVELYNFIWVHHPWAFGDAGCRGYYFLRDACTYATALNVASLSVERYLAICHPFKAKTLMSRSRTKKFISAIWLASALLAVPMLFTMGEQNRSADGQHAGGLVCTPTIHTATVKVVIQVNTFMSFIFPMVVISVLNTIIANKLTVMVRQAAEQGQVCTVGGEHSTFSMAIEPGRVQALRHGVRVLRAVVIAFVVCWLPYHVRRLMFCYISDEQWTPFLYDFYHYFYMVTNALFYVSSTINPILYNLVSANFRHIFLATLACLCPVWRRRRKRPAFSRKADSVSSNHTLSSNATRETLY
experimental details: Competitive binding assay on frozen tissue sections of receptor-positive human tumors vs radioiodinated native neurotensin
condition label: Table 3
Where a SMILES comes first, the peptide text is derived from it. [ ]: non-standard residue; d: D form. The star is where a group is joined. ξ: configuration not given here. DTPA = O=C(O)CN(CCN(CC(=O)O)CC(=O)O)CCN(CC(=O)O)CC(=O)*; ξGly(4-Pip(1-amidino)) = N=C(N)N1CCC(C(N)C(=O)O)CC1; ξGly(piperidin-4-yl) = NC(C(=O)O)C1CCNCC1; Cha = N[C@@H](CC1CCCCC1)C(=O)O; Tle = CC(C)(C)[C@H](N)C(=O)O
pKd by entry:
As a rule, pKd stands for the negative log10 of the concentration, concentration in M.

CC(C)(C)[C@H](NC(=O)[C@H](Cc1ccc(O)cc1)NC(=O)[C@@H]1CCCN1C(=O)[C@H](CCCNC(=N)N)NC(=O)C(NC(=O)[C@@H]1CCCN1C(=O)[C@@H](CCCCN)NC(=O)CN(CCN(CCN(CC(=O)O)CC(=O)O)CC(=O)O)CC(=O)O)C1CCN(C(=N)N)CC1)C(=O)N[C@@H](CC1CCCCC1)C(=O)O (stereo partly drawn) ({DTPA}-[dK]P[ξGly(4-Pip(1-amidino))]RPY[Tle][Cha]-OH)    7.92
CC(C)C[C@H](NC(=O)[C@@H](NC(=O)[C@H](Cc1ccc(O)cc1)NC(=O)[C@@H]1CCCN1C(=O)[C@H](CCCNC(=N)N)NC(=O)C(NC(=O)[C@@H]1CCCN1C(=O)[C@@H](CCCCN)NC(=O)CN(CCN(CCN(CC(=O)O)CC(=O)O)CC(=O)O)CC(=O)O)C1CCN(C(=N)N)CC1)C(C)(C)C)C(=O)O (single isomer, unassigned)    8.46

Consider the additional compound presented here.
## Task Can you share its pKd? I mean this compound: CC(C)C[C@H](NC(=O)[C@@H](NC(=O)[C@H](Cc1ccc(O)cc1)NC(=O)[C@@H]1CCCN1C(=O)C(NC(=O)C(NC(=O)[C@@H]1CCCN1C(=O)[C@@H](CCCCN)NC(=O)CN(CCN(CCN(CC(=O)O)CC(=O)O)CC(=O)O)CC(=O)O)C1CCN(C(=N)N)CC1)C1CCNCC1)C(C)(C)C)C(=O)O (stereo partly drawn) ({DTPA}-[dK]P[ξGly(4-Pip(1-amidino))][ξGly(piperidin-4-yl)]PY[Tle]L-OH)
## Result 6.85

###

tgt: neurotensin receptors (Homo sapiens, UniProt P30989)
experimental details: Competitive binding assay on frozen tissue sections of receptor-positive human tumors vs radioiodinated native neurotensin
condition label: Table 3
pKd: −log10 of the molar value. Where a SMILES comes first, the peptide text is derived from it. [ ]: non-standard residue; d: D form. The star is where a group is joined. ξ: configuration not given here. DTPA = O=C(O)CN(CCN(CC(=O)O)CC(=O)O)CCN(CC(=O)O)CC(=O)*; ξGly(4-Pip(1-amidino)) = N=C(N)N1CCC(C(N)C(=O)O)CC1; ξPhe(4-guanidino) = N=C(N)Nc1ccc(CC(N)C(=O)O)cc1; ξGly(piperidin-4-yl) = NC(C(=O)O)C1CCNCC1; Pro(4-oxo) = O=C1CN[C@H](C(=O)O)C1; mTyr = N[C@@H](Cc1cccc(O)c1)C(=O)O; Ala(cPr) = N[C@@H](CC1CC1)C(=O)O; tBuAla = CC(C)(C)C[C@H](N)C(=O)O; Cha = N[C@@H](CC1CCCCC1)C(=O)O; Tle = CC(C)(C)[C@H](N)C(=O)O; Pip = O=C(O)[C@@H]1CCCCN1; Ac6c = NC1(C(=O)O)CCCCC1; Aze = O=C(O)[C@@H]1CCN1
Binary classification by pKd, with 7 as an inclusive lower bound for True; all other cases are False.

## Task Decide: pKd of CC(C)C[C@H](NC(=O)[C@@H](NC(=O)[C@H](Cc1cccc(O)c1)NC(=O)[C@@H]1CCCN1C(=O)[C@H](CCCNC(=N)N)NC(=O)C(NC(=O)[C@@H]1CCCN1C(=O)[C@@H](CCCCN)NC(=O)CN(CCN(CCN(CC(=O)O)CC(=O)O)CC(=O)O)CC(=O)O)C1CCN(C(=N)N)CC1)C(C)(C)C)C(=O)O (stereo partly drawn) ({DTPA}-[dK]P[ξGly(4-Pip(1-amidino))]RP[mTyr][Tle]L-OH) >= 7?
## Result False

## Task Test whether the compound CC(C)(C)[C@H](NC(=O)[C@H](Cc1ccc(O)cc1)NC(=O)[C@@H]1CCCN1C(=O)[C@H](CCCNC(=N)N)NC(=O)C(NC(=O)[C@@H]1CCCN1C(=O)[C@@H](CCCCN)NC(=O)CN(CCN(CCN(CC(=O)O)CC(=O)O)CC(=O)O)CC(=O)O)C1CCN(C(=N)N)CC1)C(=O)N[C@@H](CC1CC1)C(=O)O (stereo partly shown) ({DTPA}-[dK]P[ξGly(4-Pip(1-amidino))]RPY[Tle][Ala(cPr)]-OH) records pKd of 7 or higher.
## Result False

## Task Identify whether the reported pKd of the following compound is 7 or greater: CC(C)C[C@H](NC(=O)[C@@H](NC(=O)[C@H](Cc1ccc(O)cc1)NC(=O)[C@@H]1CC(=O)CN1C(=O)[C@H](CCCNC(=N)N)NC(=O)C(NC(=O)[C@@H]1CCCN1C(=O)[C@@H](CCCCN)NC(=O)CN(CCN(CCN(CC(=O)O)CC(=O)O)CC(=O)O)CC(=O)O)C1CCN(C(=N)N)CC1)C(C)(C)C)C(=O)O (stereo partly drawn) ({DTPA}-[dK]P[ξGly(4-Pip(1-amidino))]R[Pro(4-oxo)]Y[Tle]L-OH)
## Result False

## Task Check the entry CC(C)C[C@H](NC(=O)[C@@H](NC(=O)[C@H](Cc1ccc(O)cc1)NC(=O)[C@@H]1CCN1C(=O)[C@H](CCCNC(=N)N)NC(=O)C(NC(=O)[C@@H]1CCCN1C(=O)[C@@H](CCCCN)NC(=O)CN(CCN(CCN(CC(=O)O)CC(=O)O)CC(=O)O)CC(=O)O)C1CCN(C(=N)N)CC1)C(C)(C)C)C(=O)O (stereo partly drawn) ({DTPA}-[dK]P[ξGly(4-Pip(1-amidino))]R[Aze]Y[Tle]L-OH) : does pKd equal or exceed 7?
## Result False

## Task Determine whether this compound has pKd no lower than 7: CC(C)C[C@H](NC(=O)[C@@H](NC(=O)[C@H](Cc1ccc(O)cc1)NC(=O)[C@@H]1CCCN1C(=O)[C@H](CCCNC(=N)N)NC(=O)C(NC(=O)[C@@H]1CCCN1C(=O)C(NC(=O)CN(CCN(CCN(CC(=O)O)CC(=O)O)CC(=O)O)CC(=O)O)C1CCNCC1)C1CCN(C(=N)N)CC1)C(C)(C)C)C(=O)O (stereo partly drawn) [Compound XI] ({DTPA}-[ξGly(piperidin-4-yl)]P[ξGly(4-Pip(1-amidino))]RPY[Tle]L-OH)
## Result True

## Task Kindly determine if pKd recorded for CC(C)(C)[C@H](NC(=O)[C@H](Cc1ccc(O)cc1)NC(=O)[C@@H]1CCCN1C(=O)[C@H](CCCNC(=N)N)NC(=O)C(NC(=O)[C@@H]1CCCN1C(=O)[C@H](CCCCN)NC(=O)[C@H](CC(N)=O)NC(=O)[C@H](CCC(=O)O)NC(=O)[C@@H](Cc1ccc(O)cc1)NC(=O)CN(CCN(CCN(CC(=O)O)CC(=O)O)CC(=O)O)CC(=O)O)C1CCN(C(=N)N)CC1)C(=O)N[C@@H](CC1CCCCC1)C(=O)O (stereo partly shown) [Compound XIV] ({DTPA}-[dY]ENKP[ξGly(4-Pip(1-amidino))]RPY[Tle][Cha]-OH) is above or exactly 7.
## Result True

## Task Textbook exercise: given the entry CC(C)C[C@H](NC(=O)C1(NC(=O)[C@H](Cc2ccc(O)cc2)NC(=O)[C@@H]2CCCN2C(=O)[C@H](CCCNC(=N)N)NC(=O)C(NC(=O)[C@@H]2CCCN2C(=O)[C@@H](CCCCN)NC(=O)CN(CCN(CCN(CC(=O)O)CC(=O)O)CC(=O)O)CC(=O)O)C2CCN(C(=N)N)CC2)CCCCC1)C(=O)O (stereo partly drawn) ({DTPA}-[dK]P[ξGly(4-Pip(1-amidino))]RPY[Ac6c]L-OH) , state whether its pKd is greater than or equal to 7.
## Result False

## Task Dear colleague, could you confirm whether CC(C)(C)C[C@H](NC(=O)[C@@H](NC(=O)[C@H](Cc1ccc(O)cc1)NC(=O)[C@@H]1CCCN1C(=O)[C@H](CCCNC(=N)N)NC(=O)C(NC(=O)[C@@H]1CCCN1C(=O)[C@H](CCCCN)NC(=O)[C@H](CC(N)=O)NC(=O)[C@H](CCC(=O)O)NC(=O)[C@@H](Cc1ccc(O)cc1)NC(=O)CN(CCN(CCN(CC(=O)O)CC(=O)O)CC(=O)O)CC(=O)O)C1CCN(C(=N)N)CC1)C(C)(C)C)C(=O)O (stereo partly shown) [Compound XV] ({DTPA}-[dY]ENKP[ξGly(4-Pip(1-amidino))]RPY[Tle][tBuAla]-OH) has pKd at or above 7?
## Result True

## Task Could you tell me if the measured pKd of CC(C)C[C@H](NC(=O)[C@@H](NC(=O)[C@H](Cc1ccc(O)cc1)NC(=O)[C@@H]1CCCCN1C(=O)[C@H](CCCNC(=N)N)NC(=O)C(NC(=O)[C@@H]1CCCN1C(=O)[C@@H](CCCCN)NC(=O)CN(CCN(CCN(CC(=O)O)CC(=O)O)CC(=O)O)CC(=O)O)C1CCN(C(=N)N)CC1)C(C)(C)C)C(=O)O (stereo partly drawn) ({DTPA}-[dK]P[ξGly(4-Pip(1-amidino))]R[Pip]Y[Tle]L-OH) reaches 7 or more?
## Result False

## Task hey, is pKd for this one >= 7? CC(C)C[C@H](NC(=O)[C@@H](NC(=O)[C@H](Cc1ccc(O)cc1)NC(=O)[C@@H]1CCCN1C(=O)[C@H](CCCNC(=N)N)NC(=O)C(Cc1ccc(NC(=N)N)cc1)NC(=O)[C@@H]1CCCN1C(=O)[C@@H](CCCCN)NC(=O)CN(CCN(CCN(CC(=O)O)CC(=O)O)CC(=O)O)CC(=O)O)C(C)(C)C)C(=O)O (stereo partly drawn) [Compound IX] ({DTPA}-[dK]P[ξPhe(4-guanidino)]RPY[Tle]L-OH)
## Result True
